# protocolNotes: in vivo
# condition: female, rat, in vivo, po, 20 mg/kg
experimentalReadout: half-life (h)
Supply the numeric figure in h, leaving out any unit text.

molecule: CN1[C@@H](CC(=O)c2ccccc2)CCC[C@H]1C[C@H](O)c1ccccc1 [Lobeline]
observedMeasurement: 2.29

Continue with the next molecule.
Query: Sample CN1[C@H](CC(=O)c2ccccc2)CCC[C@H]1C[C@H](O)c1ccccc1 (single isomer, unassigned; epimer 2) [Epimer] — what was its half-life?
Result: 1.71

* * *

# protocolNotes: in vivo
# condition: female, rat, in vivo, iv, 2 mg/kg
experimentalReadout: Tmax (min)
Supply the numeric figure in min, leaving out any unit text.

molecule: CN1[C@@H](CC(=O)c2ccccc2)CCC[C@H]1C[C@H](O)c1ccccc1
endpointUnit: min
Tmax: 4.98

Continue with the next molecule.
Query: Sample CN1[C@H](CC(=O)c2ccccc2)CCC[C@H]1C[C@H](O)c1ccccc1 (single isomer, unassigned; epimer 2) [Epimer] — what was its Tmax?
Result: 15

* * *

# protocolNotes: in vivo
# condition: male, rat, in vivo, po, 20 mg/kg
experimentalReadout: Tmax (min)
Supply the numeric figure in min, leaving out any unit text.

molecule: CN1[C@@H](CC(=O)c2ccccc2)CCC[C@H]1C[C@H](O)c1ccccc1
endpointUnit: min
Tmax: 30

Continue with the next molecule.
Query: Sample CN1[C@H](CC(=O)c2ccccc2)CCC[C@H]1C[C@H](O)c1ccccc1 (single isomer, unassigned; epimer 2) [Epimer] — what was its Tmax?
Result: 30

* * *

# protocolNotes: in vivo
# condition: male, rat, in vivo, sc, 3 mg/kg
experimentalReadout: half-life (h)
Supply the numeric figure in h, leaving out any unit text.

compound: CN1[C@H](CC(=O)c2ccccc2)CCC[C@H]1C[C@H](O)c1ccccc1 (single isomer, unassigned; epimer 2) [Epimer]
observedMeasurement: 1.11

Continue with the next compound.
Query: Sample CN1[C@@H](CC(=O)c2ccccc2)CCC[C@H]1C[C@H](O)c1ccccc1 [Lobeline] — what was its half-life?
Result: 1.18

* * *

# protocolNotes: in vivo
# condition: female, rat, in vivo, sc, 3 mg/kg
experimentalReadout: Cmax (ng/mL)
Supply the numeric figure in ng/mL, leaving out any unit text.

molecule: CN1[C@H](CC(=O)c2ccccc2)CCC[C@H]1C[C@H](O)c1ccccc1 (single isomer, unassigned; epimer 2) [Epimer]
endpointUnit: ng/mL
Cmax: 85

Continue with the next molecule.
Query: Sample CN1[C@@H](CC(=O)c2ccccc2)CCC[C@H]1C[C@H](O)c1ccccc1 [Lobeline] — what was its Cmax?
Result: 142

* * *

Listing of recorded Tmax by entry.
# protocolNotes: in vivo
# condition: female, rat, in vivo, po, 20 mg/kg
Remember to put the unit after the number in your answer.

molecule: CN1[C@H](CC(=O)c2ccccc2)CCC[C@H]1C[C@H](O)c1ccccc1 (single isomer, unassigned; epimer 2) [Epimer]
observedMeasurement: 30 min

Continue with the next molecule.
Query: Sample CN1[C@@H](CC(=O)c2ccccc2)CCC[C@H]1C[C@H](O)c1ccccc1 [Lobeline] — what was its Tmax?
Result: 30 min

* * *

# protocolNotes: in vivo
# condition: male, rat, in vivo, sc, 3 mg/kg
experimentalReadout: AUC(0-t)

compound: CN1[C@@H](CC(=O)c2ccccc2)CCC[C@H]1C[C@H](O)c1ccccc1
experimentalReadout: AUC(0-t)
observedMeasurement: 190 ng·h/mL

Query: Sample CN1[C@H](CC(=O)c2ccccc2)CCC[C@H]1C[C@H](O)c1ccccc1 (single isomer, unassigned; epimer 2) [Epimer] — what was its AUC(0-t)?
Result: 108 ng·h/mL
